// provenance: ChEMBL document CHEMBL1145135

Assay read-out Tm; system under study: Mitogen-activated protein kinase 14 (Mus musculus) (UniProt P47811).
Sequence (P47811 whole entry): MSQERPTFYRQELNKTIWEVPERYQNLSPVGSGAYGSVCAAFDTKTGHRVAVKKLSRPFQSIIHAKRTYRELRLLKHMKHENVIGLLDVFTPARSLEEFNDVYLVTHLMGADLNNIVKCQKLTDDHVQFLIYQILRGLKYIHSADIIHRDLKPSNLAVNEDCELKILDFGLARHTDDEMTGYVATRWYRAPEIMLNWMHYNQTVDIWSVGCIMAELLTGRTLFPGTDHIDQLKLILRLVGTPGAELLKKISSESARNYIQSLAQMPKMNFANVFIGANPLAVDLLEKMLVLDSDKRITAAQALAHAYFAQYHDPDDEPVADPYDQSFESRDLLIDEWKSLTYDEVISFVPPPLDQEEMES
Respond with the bare value in °C.

Example compounds with recorded Tm:
{"Line Notation": "Cc1ccc(-n2nc(C(C)(C)C)cc2NC(=O)Nc2ccc(OCCN3CCNCC3)c3ccccc23)cc1", "Tm, °C": 55.6}
{"Line Notation": "Cc1ccc(-n2nc(C(C)(C)C)cc2NC(=O)Nc2ccc(OCCc3cccnc3)c3ccccc23)cc1", "Tm, °C": 59.8}
{"Line Notation": "CC(C)(C)c1cc(NC(=O)Nc2ccc(OCCN3CCOCC3)c3ccccc23)n(C2CCCCC2)n1", "Tm, °C": 54.8}

Task: # return recorded Tm for entry `COc1ccc(-n2nc(C(C)(C)C)cc2NC(=O)Nc2ccc(OCCN3CCOCC3)c3ccccc23)cn1`
Output: 59.1
